# System: SF-539 CNS
# experiment description: NCI tumour cell line growth inhibition, 48 h
Where a SMILES comes first, the peptide text is derived from it.
Parameter: TGI. Scope: all listed entries.

Worked examples follow.
COc1ccc(CNc2nc3ccccc3nc2C(=O)O)cc1OC = > 100 µM
CCC(C)C1NC(=O)C(CCCCN)NC(=O)C(CCCCN)NC(=O)C(CC(C)C)NC(=O)C(CCCCN)NC(=O)C(C(C)CC)NC(=O)C(C(C)C)NC(=O)C(C(C)CC)NC(=O)C(CCCCN)NC(=O)C(CCCCN)NC(=O)C(C)NC(=O)C(CCCCN)NC(=O)C(CC(C)C)NC1=O (stereo not given) (cyclo(AKKIVIKLKKILK); configuration not given here) = 4.38 µM
COC(=O)c1ccc(C2SC(C)C(=O)N2NC(=O)C(O)c2ccccc2)cc1 (stereo not given) = > 100 µM
COC(=O)[C@]12CC[C@@H](C)[C@H](C)[C@@H]1C1=CC[C@@H]3[C@@]4(C)C[C@@H](OC(C)=O)[C@H](O)[C@@](C)(CO)[C@@H]4[C@H](O)C[C@@]3(C)[C@]1(C)CC2 = 29.4 µM
COCCOc1nc(-c2ccccc2)nc2ccccc12 = > 100 µM
CCC(=O)NC(Nc1ccccc1F)(C(F)(F)F)C(F)(F)F = > 100 µM
COc1cc2c(cc1OCCCCCN1CCN(CCCCCOc3cc4c(cc3OC)C(=O)C3CCC[C@H]3C=N4)CC1)N=C[C@@H]1CCCC1C2=O (stereo not given in full) = > 79 µM
CS(=O)(=O)Nc1ccc2c(c1)N(S(C)(=O)=O)CC2COS(C)(=O)=O (stereo not given) = > 100 µM

Which TGI value belongs to CN(C)C(=S)/N=c1\ssc(=Nc2ccccc2)n1C ?
> 100 µM

Entry under review: CC[C@@]1(C[C@H]2C[C@@]3(C(=O)OC)c4[nH]c5ccccc5c4CCN3C2=S)COC2(CCCCC2)O1 . Reported TGI?
> 100 µM

Looking for the measured TGI of c1cncc(CNCCN2CCNCC2)c1 , can you help?
> 100 µM

Tell me the measured TGI of COc1ccc(C2NC(=O)c3cc4c(cc3N2)OCO4)cc1 (stereo not given) , please.
9.9 µM

Reported TGI, compound [N-]=[N+]=Nc1ncnc2c1sc(=S)n2-c1ccccc1 : ____
> 100 µM
